system: Chenopodium album; assay: Test of herbicidal activities (greenhouse pot method); assay type: in vivo; settings: single dose 300 g ai./h, treated before/after germination, 15 days later, greenhouse pot
experimental-endpoint: Herbicidal activity Chenopodium album (inhibition level)

compound	meas-value
Cc1nn(-c2cc3nc(S(=O)(=O)Cc4ccccc4)sc3cc2Cl)c(=O)n1C(F)F [Compound 37]	A (90 ≦ A ≦ 100%)
Cc1nn(-c2cc3nc(S(C)(=O)=O)sc3cc2F)c(=O)n1C [Compound 35]	C (60 ≦ C < 80%)
Cc1nn(-c2cc3nc(SCc4ccc(Cl)nc4)sc3cc2Cl)c(=O)n1C(F)F [Compound 1]	C (60 ≦ C < 80%)
CCCSc1nc2cc(-n3nc(C(F)(F)F)n(C(F)F)c3=O)c(Br)cc2s1 [Compound 129]	A (90 ≦ A ≦ 100%)
Cc1nn(-c2cc3nc(SCc4cccc(Cl)c4)sc3cc2F)c(=O)n1C [Compound 32]	A (90 ≦ A ≦ 100%)
CCCCS(=O)(=O)c1nc2cc(-n3nc(C)n(C(F)F)c3=O)c(Cl)cc2s1 [Compound 69]	C (60 ≦ C < 80%)
Cc1nn(-c2cc3nc(S(=O)(=O)Cc4c(F)cccc4F)sc3cc2Cl)c(=O)n1C(F)F [Compound 38]	C (60 ≦ C < 80%)
CCCSc1nc2cc(-n3nc(C)n(C(F)F)c3=O)c(Cl)cc2s1 [Compound 100]	A (90 ≦ A ≦ 100%)
CCCCSc1nc2cc(-n3nc(C)n(C(F)F)c3=O)c(Cl)cc2s1 [Compound 97]	B (80 ≦ B < 90%)
Cc1nn(-c2cc3nc(S(=O)(=O)Cc4cccc(Cl)c4)sc3cc2Cl)c(=O)n1C(F)F [Compound 40]	D (50 ≦ D < 60%)
C=CCS(=O)(=O)c1nc2cc(-n3nc(C)n(C(F)F)c3=O)c(Cl)cc2s1 [Compound 71]	B (80 ≦ B < 90%)
Cc1nn(-c2cc3nc(S(C)(=O)=O)sc3cc2F)c(=O)n1C(F)F [Compound 62]	D (50 ≦ D < 60%)
CCCSc1nc2cc(-n3nc(C)n(C)c3=O)c(F)cc2s1 [Compound 33]	B (80 ≦ B < 90%)
C#CCSc1nc2cc(-n3nc(C)n(C(F)F)c3=O)c(F)cc2s1 [Compound 130]	B (80 ≦ B < 90%)
Cc1nn(-c2cc3nc(SCc4ccc(Br)cc4)sc3cc2Cl)c(=O)n1C(F)F [Compound 6]	B (80 ≦ B < 90%)
CCC[S+]([O-])c1nc2cc(-n3nc(C)n(C(F)F)c3=O)c(Br)cc2s1 (stereo not drawn) [Compound 110]	B (80 ≦ B < 90%)
Cc1nn(-c2cc3nc(S(=O)(=O)Cc4ccc(F)cc4F)sc3cc2Cl)c(=O)n1C(F)F [Compound 45]	B (80 ≦ B < 90%)
Cc1nn(-c2cc3nc(S(=O)(=O)Cc4cccc(F)c4)sc3cc2Cl)c(=O)n1C(F)F [Compound 44]	C (60 ≦ C < 80%)
C=CCSc1nc2cc(-n3nc(C)n(C(F)F)c3=O)c(F)cc2s1 [Compound 94]	B (80 ≦ B < 90%)
CSc1nc2cc(-n3nc(C)n(C(F)F)c3=O)c(Cl)cc2s1 [Compound 96]	B (80 ≦ B < 90%)
Cc1ccccc1CS(=O)(=O)c1nc2cc(-n3nc(C)n(C(F)F)c3=O)c(F)cc2s1 [Compound 43]	C (60 ≦ C < 80%)
COCCSc1nc2cc(-n3nc(C)n(C(F)F)c3=O)c(Cl)cc2s1 [Compound 76]	C (60 ≦ C < 80%)
Cc1nn(-c2cc3nc([S+]([O-])Cc4cccc(Cl)c4)sc3cc2F)c(=O)n1C (stereo not drawn) [Compound 103]	A (90 ≦ A ≦ 100%)
CCOC(=O)CS(=O)(=O)c1nc2cc(-n3nc(C)n(C(F)F)c3=O)c(Br)cc2s1 [Compound 54]	C (60 ≦ C < 80%)
CCOC(=O)C(C)[S+]([O-])c1nc2cc(-n3nc(C)n(C(F)F)c3=O)c(Br)cc2s1 (stereo not drawn) [Compound 116]	B (80 ≦ B < 90%)
Cc1nn(-c2cc3nc(SCc4ccc(Br)cc4)sc3cc2Br)c(=O)n1C(F)F [Compound 26]	A (90 ≦ A ≦ 100%)
CCS(=O)(=O)c1nc2cc(-n3nc(C)n(C(F)F)c3=O)c(F)cc2s1 [Compound 56]	C (60 ≦ C < 80%)
Cc1nn(-c2cc3nc(S(C)(=O)=O)sc3cc2Cl)c(=O)n1C(F)F [Compound 68]	C (60 ≦ C < 80%)
Cc1ccc(C[S+]([O-])c2nc3cc(-n4nc(C)n(C(F)F)c4=O)c(F)cc3s2)cc1 (stereo not drawn) [Compound 105]	B (80 ≦ B < 90%)
C=CCS(=O)(=O)c1nc2cc(-n3nc(C)n(C(F)F)c3=O)c(Br)cc2s1 [Compound 60]	B (80 ≦ B < 90%)
Cc1nn(-c2cc3nc(SCc4ccccc4Cl)sc3cc2F)c(=O)n1C(F)F [Compound 24]	B (80 ≦ B < 90%)
CCCS(=O)(=O)c1nc2cc(-n3nc(C)n(C(F)F)c3=O)c(F)cc2s1 [Compound 64]	B (80 ≦ B < 90%)

The reported numbers originate from patent US7666890B2.
